Experimental system: HLA-A*02:01 (Homo sapiens, UniProt P04439, D140Y/D185E/D98H/E176V/E277Q/G131W/G231S/I119V/I121R/I166T/I218V/L300P/L318F/N151K/N90K/P208A/P217A/Q86G/Q94H/R138H/R169H/T345S)
Method: MHC binding assay, UV-ligand exchange with beta2m ELISA (exchange yield), HLA-A*02
Measurement conditions: binding to HLA-A*02 ranged by peptide exchange yield
Endpoint name: Peptide exchange (MHC class I binding score)

Guide cases for Peptide exchange (MHC class I binding score), answers given:
In [3]: df
Out[3]:
                                  substance             reported
0  17 (ILHEHHIFL; listed as Homo sapiens) [compound 17]  +++ (50%-75% = +++)
1  335 (VLLAAGPSAA; listed as Homo sapiens) [compound 335]    ++ (20%-49% = ++)
2  1 (PLWGKVFYL; listed as Homo sapiens) [compound 1]    ++ (20%-49% = ++)
3  21 (SLYHRVLLY; listed as Homo sapiens) [compound 21]  ++++ (>=75% = ++++)

So what's the measured Peptide exchange (MHC class I binding score) for this one? 79 (SLVPLQILL; listed as Homo sapiens) [compound 79]
++++ (>=75% = ++++)

// same read-out, input: 12 (GLIYEETRGV; listed as Homo sapiens) [compound 12]
++ (20%-49% = ++)

Follow-up entry: 13 (VLRDNIQGI; listed as Homo sapiens) [compound 13]
+++ (50%-75% = +++)

327 (SIGDIFLKY; listed as Homo sapiens) [compound 327] ?
+++ (50%-75% = +++)

And for 27 (KVFGDLDQV; listed as Homo sapiens) [compound 27] ?
+++ (50%-75% = +++)

Now consider 2 (ALYGKLLKL; listed as Homo sapiens) [compound 2] and answer again.
+++ (50%-75% = +++)
